Recorded viability at 28.5 h, 10 µM, one value per entry.
# Procedure text: in vitro
# Assay setup: human, hela cells, % viability
Readout kind: viability at 28.5 h, 10 µM (%)

INSERT INTO measurements (compound, value_measured) VALUES
  ('O=C(O)C1(NS(=O)(=O)c2ccc(Cl)cc2)CCCCC1 [CBK028566]', 111),
  ('Cc1ccnn1C(C)C(=O)NC(Cc1ccsc1)c1nccs1 (stereo not shown) [CBK285141]', 92.1),
  ('COc1ccc(CCc2nc(C)cc(CN(C)C)c2O)cc1OC [CBK278320C]', 89),
  ('CCOC(=O)c1c(NC(=O)C2CCCCC2C(=O)O)sc(C)c1C (stereo not shown) [CBK265469]', 99.2),
  ('COc1cc([N+](=O)[O-])ccc1-c1ccc(/C=c2\sc3nc4cc(Br)cnc4n3c2=O)o1 [CBK262579]', 103),
  ('N#Cc1nc(/C=C/c2cccs2)oc1NCCCn1ccnc1 [CBK269455]', 84.1),
  ('c1ccc2c(c1)CCCN2CCc1c[nH]c2ccccc12 [CBK138330]', 97.3),
  ('CC(NC(=O)N1CCSCC1)c1cccc(Br)c1 (stereo not shown) [CBK306475]', 86.2),
  ('Cc1ccc(CNC(=O)c2cnoc2-c2ccc(Br)cc2)cc1F [CBK154896]', 93.8),
  ('[O-][n+]1c2c([n+]([O-])c3c1CCCC3)CCCC2 [CBK261714]', 99.5);

---

Recorded viability at 28.5 h, 10 µM, one value per entry.
# Procedure text: in vitro
# Assay setup: human, hela cells, % viability
Readout kind: viability at 28.5 h, 10 µM (%)

INSERT INTO measurements (molecule, value_measured) VALUES
  ('c1ccc(Nc2nccc(C3CCCN(Cc4ccc5[nH]ccc5c4)C3)n2)nc1 (stereo not drawn)', 85.3),
  ('O=C(c1ncoc1-c1ccc(F)cc1)N1CCN2CCCCC2C1 (stereo not drawn)', 96.2),
  ('O=C1COc2ccccc2C/C=C/CC2(CCN(C(=O)CCc3cccnc3)CC2)CN1', 90.8),
  ('CCOc1ccc(S(=O)(=O)N2CCN(Cc3cc(C(=O)OC)n(C)c3)CC2)c2cccnc12', 92.6),
  ('Cc1nnc2sc(-c3ccccc3NC(=S)NC(=O)c3cc4ccccc4o3)nn12', 103),
  ('O=C1CC(C(=O)Nc2ncccn2)C(c2ccccc2)O1 (stereo not drawn)', 106),
  ('COc1ccc(CC(=O)N(C)Cc2nnc3ccccn23)cc1', 87.8),
  ('COc1cc2nc(N3CCC4(CCN(C(=O)C(c5ccccc5)C(C)C)C4)C3)nc(N)c2cc1OC (stereo not drawn)', 76.3),
  ('c1ccc2cc(CCN3CCC(Oc4nccnc4OCCN4CCOCC4)CC3)ccc2c1 [CBK082942T]', 90.7);

---

Recorded viability at 28.5 h, 10 µM, one value per entry.
# Procedure text: in vitro
# Assay setup: human, hela cells, % viability
Readout kind: viability at 28.5 h, 10 µM (%)

INSERT INTO assay_data (molecule, value_measured) VALUES
  ('Cc1ccc(Cl)c(OC(C)C(=O)N2CCOC(CC(=O)O)C2)c1 (stereo not shown)', 93),
  ('CC1CCCN(Cc2c(C3CCNCC3)[nH]c3ncccc23)C1C (stereo not shown)', 89.1),
  ('Cc1ccc(Cl)cc1-n1cc(-c2ccc(F)cc2)nn1', 98.9),
  ('Nc1ncc(-c2occc2C=O)nc1NC1CCOCC1', 103),
  ('Nc1ncc2cc(C(F)(F)F)ccc2n1', 107),
  ('COC(=O)c1cccc(Cn2cc(/C=C\[N+](=O)[O-])c3ccccc32)c1', 93.4),
  ('Cn1c(-c2ccc(CN3CCCC3)cc2)cc2oc(-c3ccccc3SCCO)nc2c1=O [CBK200427T]', 94.7),
  ('NC(=O)CN1CCCN(c2ccnc(OCCN3CCOCC3)n2)CC1', 89.9),
  ('CC(=O)c1ccc(-c2cnc3[nH]c(=O)n([C@@H](C)c4ccccc4)c3n2)s1', 98.3),
  ('COc1ccc(C(=O)C2=C(O)C(=O)N(CCCN(C)C)C2c2ccc(Cl)c(Cl)c2)c(C)c1 (stereo not shown)', 98.8),
  ('COc1ccc(S(=O)(=O)NC(C)C(=O)Nc2cc(Cl)ccc2OC)cc1 (stereo not shown)', 104),
  ('CCCC1C(C(N)=O)=C(C)NC(C)=C1C(N)=O', 105),
  ('CCC(C)NC1=NC(=O)C(CC(=O)N(C)c2ccccc2)S1 (stereo not shown) [CBK059110T]', 83.3),
  ('CC(CNC(=O)c1cncc(O)c1)NC(=O)c1cncc(O)c1 (stereo not shown)', 89.2),
  ('Oc1ccc(-n2cc(-c3ccc(F)cc3)nn2)cc1', 82),
  ('CCOC(=O)N1CCC(NC(=O)N2CCN(c3ccccc3)CC2)CC1', 113),
  ('CC(=O)N1CCc2c([nH]c3c(C)cccc23)C12CCN(C/C=C\c1ccccc1)C2 (stereo not shown)', 90.8),
  ('COc1ccc(-c2cncc(N3CCN(c4cccc5[nH]ccc45)CC3)n2)cc1', 97.2),
  ('CC(=O)N1CCN(Cc2c(C3CCCC3)[nH]c3ncccc23)CC1', 80);

Where do these numbers come from? They come from paper PMC12040169.
